Values from PubChem BioAssay (NCATS)

system: CP185; experiment: qHTS profiling for inhibitors of Plasmodium falciparum proliferation (AID 504749);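 note: 0% = DMSO vehicle and full inhibition = artemisinin control; nearly all actives have a fitted effect of over 60% in size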; conditions: P. falciparum in erythrocytes, SYBR Green DNA, 72 h; series mostly up to 28.7 µM
Results filed as inconclusive are left out. The source made the active and inactive calls. Calls come from the whole dose curve; as a rule, active = well fitted inhibition curve with a large enough effect; inconclusive = small, poorly fitted or top-dose-only effect; inactive = flat fitted curve, though single readings scatter.
Hello, when you answer, please use one of the following outcomes: active, inactive

>>> category_label("C=C[C@@]1(C)CC(=O)[C@]2(O)[C@@]3(C)[C@@H](O)CCC(C)(C)[C@@H]3[C@H](O)[C@H](OC(C)=O)[C@@]2(C)O1")
"inactive"
>>> category_label("NC(N)=NCc1cccc(I)c1")
"inactive"

// next entry
Query: Could you please tell me the result logged for CCC1Nc2cc(Cl)c(S(N)(=O)=O)cc2S(=O)(=O)N1 (stereo not given) in this assay?
Response: inactive

---

experiment: qHTS profiling for inhibitors of Plasmodium falciparum proliferation (AID 504749);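 note: 0% = DMSO vehicle and full inhibition = artemisinin control; nearly all actives have a fitted effect of over 60% in size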; settings: P. falciparum in erythrocytes, SYBR Green DNA, 72 h; at 28.7 µM (top of the series); parasite line B
Inconclusive results are not listed.
Property Label: activity, negative = inhibition (%)
Numbers only, in %.

>>> reported_measurement("Cc1cc(NS(=O)(=O)c2ccc(N)cc2)nc(C)n1")
5.66
>>> reported_measurement("O=C(Nc1ccc([N+](=O)[O-])cc1)Nc1ccc([N+](=O)[O-])cc1")
-6.66
>>> reported_measurement("NC(=O)c1ccccc1O")
15.1
>>> reported_measurement("Cc1cc(C)cc(OCC2CNC(=O)O2)c1 (stereo unspecified)")
4.34
>>> reported_measurement("CC(=O)NCCCCCC(=O)O")
13.3
>>> reported_measurement("CC(=O)OCC(=O)[C@H]1CC[C@H]2[C@@H]3CCC4=CC(=O)CC[C@]4(C)[C@H]3CC[C@]12C")
-3.83
>>> reported_measurement("O=C1C(O)=C(O)C(=O)C(O)=C1O")
12.3
>>> reported_measurement("CC(=O)Nc1ccc(OCC(O)CNC(C)C)cc1 (stereo unspecified)")
11.8
>>> reported_measurement("CCc1oc2ccccc2c1C(=O)c1cc(I)c(O)c(I)c1")
-5.21
>>> reported_measurement("CN1CCN(CCC(=O)N2c3ccccc3Sc3ccc(C(F)(F)F)cc32)CC1")
-2.7

Please state, for each entry, its recorded activity, negative = inhibition.
1. NC(=O)n1c(O)c(C(=O)c2cccs2)c2cc(Cl)ccc21
2. CCCN(CCC)S(=O)(=O)c1ccc(C(=O)O)cc1
3. CC(=O)N[C@@H](CCC(=O)O)C(=O)O
4. Cc1nc(-c2ccc(Cl)cc2)oc1COC(C)(C)C(=O)O
5. CN(C)CCN1C(=O)c2ccccc2N(C)c2ccccc21

Response:
1: -6.01; 2: 6; 3: 2.94; 4: 9.87; 5: 8.88

Please state, for each entry, its recorded activity, negative = inhibition.
1. O=C(Oc1cccc2cccnc12)c1ccccc1
2. O=C(NC1CCN(CCc2c[nH]c3ccccc23)CC1)c1ccccc1
3. O=C(O)C1(C(=O)O)CCC1.[NH2-].[NH2-].[Pt+2]
4. NS(=O)(=O)Cc1noc2ccccc12
5. CCCCC(CC)COC(=O)c1ccc(N(C)C)cc1 (stereo unspecified)

Response:
1. -15.2
2. -5.78
3. -0.756
4. 4.66
5. -4.81

Please state, for each entry, its recorded activity, negative = inhibition.
1. CCCCCCCC/C=C\CCCCCCCCN
2. OC1C(O)C(O)C(O)C(O)C1O (stereo unspecified)

Response:
3.75
14.4

Please state, for each entry, its recorded activity, negative = inhibition.
1. C/C=C/C=N/NC(=O)c1ccncc1
2. C#C[C@]1(OC(C)=O)CC[C@H]2[C@@H]3CCC4=C/C(=N/O)CC[C@@H]4[C@H]3CC[C@@]21CC
3. CCCCCCCCCCCCCCCC(=O)O
4. CN1CCN(c2cc3c(cc2F)c(=O)c(C(=O)O)cn3-c2ccc(F)cc2)CC1
5. C#C[C@]1(O)CC[C@H]2[C@@H]3CCc4cc(OC)ccc4[C@H]3CC[C@@]21C
6. Nc1nc(-c2ccccc2)c(Br)c(=O)[nH]1

Response:
1: -0.189; 2: -15.6; 3: 7.62; 4: -17.5; 5: 15.1; 6: 1.53

---

For each record, write down the corresponding activity, negative = cell killing.
assay: Drug repurposing screens with cells derived from glioblastoma tumor samples (AID 1345199); settings: GBM patient neurospheres viability, ATP luminescence, 48 h; at 45.9 µM (top of the series); tumour line B; note: % is set by controls: 0 for no effect and ±100 for the full control effect; nearly all actives have a fitted effect of over 40% in size
Results filed as inconclusive are left out.
Numbers only, in %.

Please state, for each entry, its recorded activity, negative = cell killing.
1. CCCCCN=C(N)N/N=C/c1c[nH]c2ccc(OC)cc12
2. CCCCN1C[C@H](O)[C@@H](O)[C@H](O)[C@H]1CO
3. COc1ccc(-c2cc(C(F)F)nn2-c2ccc(S(N)(=O)=O)cc2)cc1F
4. CC(=O)N[C@@H](CCC(=O)O)C(=O)O
5. O=[N+]([O-])c1cccc(S(=O)(=O)NCCNS(=O)(=O)c2cccc([N+](=O)[O-])c2)c1
6. CN(C)CCOC(=O)C(c1ccccc1)C1(O)CCCC1 (stereo not given)
7. O=C1OC2(c3ccccc31)c1cc(Br)c(O)c(Br)c1Oc1c2cc(Br)c(O)c1Br

Response:
1. -10.3
2. -11.2
3. -10.4
4. 2.35
5. -14.3
6. -2.94
7. -12.6

Please state, for each entry, its recorded activity, negative = cell killing.
1. N=C(N)N1CCc2ccccc2C1
2. COc1ccc(/C=N/NC(=O)c2ccncc2)cc1OC
3. C=C[C@H]1CN2CC[C@H]1C[C@@H]2[C@@H](O)c1ccnc2ccc(OC)cc12

Response:
-7.25
-3.24
-7.35

---

tested on: HaCat; assay: Cytotoxic Profiling of Annotated Libraries Using Quantitative High-Throughput Screening (AID 1296008); conditions: Five cell lines viability, CellTiter-Glo ATP luminescence, 48-72 h; active compounds read low; note: % is set by controls: 0 for no effect and ±100 for the full control effect; nearly all actives have a fitted effect of over 60% in size
Results filed as inconclusive are left out.
Property Label: max response (%)
Numbers only, in %.

Please state, for each entry, its recorded max response.
1. CC(=O)NO
2. O=[N+]([O-])c1cccc(S(=O)(=O)NCCNS(=O)(=O)c2cccc([N+](=O)[O-])c2)c1
3. NS(=O)(=O)c1cc2c(cc1Cl)NC(CC1CCCC1)NS2(=O)=O (centres undefined)
4. CCC1NC(=O)c2cc(S(N)(=O)=O)c(Cl)cc2N1 (centres undefined)

Response:
1. -61
2. 0.408
3. -5.14
4. -3.39

---

experiment: Drug repurposing screens with cells derived from glioblastoma tumor samples (AID 1345199); conditions: GBM patient neurospheres viability, ATP luminescence, 48 h; at 45.9 µM (top of the series); tumour line D; note: % is set by controls: 0 for no effect and ±100 for the full control effect; nearly all actives have a fitted effect of over 40% in size
Records with an inconclusive call do not appear.
Property Label: activity, negative = cell killing (%)
Numbers only, in %.

See these solved cases before continuing.
>>> reported_measurement("CN1CCN(c2cc3c(cc2F)c(=O)c(C(=O)O)cn3-c2ccc(F)cc2)CC1")
-1.79
>>> reported_measurement("CC(=O)N[C@@H](CCC(=O)O)C(=O)O")
-7.45
>>> reported_measurement("CCCCCCCCCCCCSCCOCCO")
-19.1
>>> reported_measurement("N[C@H](C(=O)O)[C@@H](O)c1ccc(O)c(O)c1")
-33.1

Please state, for each entry, its recorded activity, negative = cell killing.
1. CCCCN=C(N)N=C(N)N
2. Cc1cc(NS(=O)(=O)c2ccc(N)cc2)nc(C)n1
3. O=C(O)CCc1nc2ccccc2[nH]1
4. C/C=C/c1ccc(O)c(OC)c1

Response:
1: -11; 2: -16.4; 3: 5.36; 4: -0.156

---

test system: Tov-21-G; test: Primary qHTS to identify gynecologic anti-cancer compounds using libraries of approved drugs and bioactive compounds (AID 1345084); conditions: Gynecologic cancer cell panel viability, ATPlite luminescence, 48 h; series mostly up to 57.5 µM; note: nearly all actives have a fitted effect of over 55% in size
Records with an inconclusive call do not appear. The source made the active and inactive calls. Calls follow the shape of the dose curve; as a rule, active = well fitted cell-killing curve with a large enough effect; inconclusive = small, poorly fitted or top-dose-only effect, or effect the other way; inactive = flat fitted curve, though single readings scatter.
Hello, when you answer, please use one of the following outcomes: active, inactive

>>> category_label("CCOc1ccccc1C(N)=O")
"inactive"
>>> category_label("CC(=O)OCC(=O)[C@H]1CC[C@H]2[C@@H]3CCC4=CC(=O)CC[C@]4(C)[C@H]3CC[C@]12C")
"inactive"
>>> category_label("O=[N+]([O-])c1ccc(/C=N\\O)o1")
"inactive"
>>> category_label("Nc1ccc(C(=O)NCC(=O)O)cc1")
"inactive"
>>> category_label("CCCN(CCc1cccs1)[C@H]1CCc2c(O)cccc2C1")
"inactive"
>>> category_label("OC[C@H]1O[C@@H]2O[C@H]3[C@H](O)[C@@H](O)[C@@H](O[C@H]4[C@H](O)[C@@H](O)[C@@H](O[C@H]5[C@H](O)[C@@H](O)[C@@H](O[C@H]6[C@H](O)[C@@H](O)[C@@H](O[C@H]7[C@H](O)[C@@H](O)[C@@H](O[C@H]8[C@H](O)[C@@H](O)[C@@H](O[C@H]1[C@H](O)[C@H]2O)O[C@@H]8CO)O[C@@H]7CO)O[C@@H]6CO)O[C@@H]5CO)O[C@@H]4CO)O[C@@H]3CO")
"inactive"
>>> category_label("O=C1[C@H](CC[C@H](O)c2ccc(F)cc2)[C@@H](c2ccc(O)cc2)N1c1ccc(F)cc1")
"inactive"
>>> category_label("CC(=O)Nc1ccc(OCC(O)CNC(C)C)cc1 (centres undefined)")
"inactive"
>>> category_label("CC(C)(C)CC(C)(C)c1ccc(O)c(-n2nc3ccccc3n2)c1")
"inactive"
>>> category_label("C#C[C@]1(O)CC[C@H]2[C@@H]3CCc4cc(OC)ccc4[C@H]3CC[C@@]21C")
"inactive"

Query: Could you please tell me the result logged for CCN1/C(=C/C=C/c2sc3ccccc3[n+]2CC)Sc2ccccc21 in this assay?
Response: active

Query: Could you please tell me the result logged for O=C(O)C1(C(=O)O)CCC1.[NH2-].[NH2-].[Pt+2] in this assay?
Response: inactive

Query: Could you please tell me the result logged for C[C@@H](O)[C@H]1C(=O)N2C(C(=O)O)=C([C@H]3CCCO3)S[C@H]12 in this assay?
Response: inactive

Query: Could you please tell me the result logged for CC(=O)OCC1=C(C(=O)O)N2C(=O)[C@@H](NC(=O)CSc3ccncc3)[C@H]2SC1 in this assay?
Response: inactive
